System: Crude diglycosidase
Method description: Examination of pH in the conversion into isoflavone aglycons by diglycosidase using soybean materials
Assay type: biochemical, Penicillium multicolor IAM7153
Condition info: pH3.7; heat treatment of enzyme: no; reaction time 0 h
Quantity name: Decomposition efficiency of daidzin family in concentrated soybean protein (%)

{"Smiles repr": "O=c1c(-c2ccc(O)cc2)coc2cc(O[C@@H]3O[C@H](CO)[C@@H](O)[C@H](O)[C@H]3O)ccc12", "Assay value": 52.5}
{"Smiles repr": "O=c1c(-c2ccc(O)cc2)coc2cc(O)ccc12", "Assay value": 3.0}
{"Smiles repr": "CC(=O)OC[C@H]1O[C@@H](Oc2ccc3c(=O)c(-c4ccc(O)cc4)coc3c2)[C@H](O)[C@@H](O)[C@@H]1O", "Assay value": 44.6}

###

System: Crude diglycosidase
Method description: Examination of pH in the conversion into isoflavone aglycons by diglycosidase using soybean materials
Type: biochemical, Penicillium multicolor IAM7153
Design: concentration or dose not given beside the values
Condition info: pH2.6; heat treatment of enzyme: no; reaction time 1 h
Reported Decomposition efficiency of genistin family in defatted soybean by item:
Quantity name: Decomposition efficiency of genistin family in defatted soybean (%)

{"Smiles repr": "O=c1c(-c2ccc(O)cc2)coc2cc(O)cc(O)c12", "Assay value": 17.7}
{"Smiles repr": "O=C(O)CC(=O)OC[C@H]1O[C@@H](Oc2cc(O)c3c(=O)c(-c4ccc(O)cc4)coc3c2)[C@H](O)[C@@H](O)[C@@H]1O", "Assay value": 44.4}
{"Smiles repr": "O=c1c(-c2ccc(O)cc2)coc2cc(O[C@@H]3O[C@H](CO)[C@@H](O)[C@H](O)[C@H]3O)cc(O)c12", "Assay value": 36.3}
{"Smiles repr": "CC(=O)OC[C@H]1O[C@@H](Oc2cc(O)c3c(=O)c(-c4ccc(O)cc4)coc3c2)[C@H](O)[C@@H](O)[C@@H]1O", "Assay value": 1.7}

###

Reported Decomposition efficiency: ratio of each glycoside/aglycon within its isoflavone family by item:
System: Crude diglycosidase
Method description: Examination of substrate concentration in the conversion into isoflavone aglycons by diglycosidase using soybean materials;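 also: percent of the isoflavone family total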
Assay type: biochemical, Penicillium multicolor IAM7153
Condition info: roasted soy flour, substrate concentration 5%, heat treatment of enzyme yes, reaction time 6 h
Protocol: Into 20 mM acetate buffer of pH 4.0 was suspended 0.1 g, 0.25 g, 0.5 g, 1.0 g, or 1.5 g of each of various soybean materials (roasted soy flour (manufactured by Fuji Shokuryo K.K.), soymilk (manufactured by Gitoh Shokuhin K.K.), defatted soybean (manufactured by Fuji Seiyu K.K.), concentrated soybean protein (manufactured by Fuji Seiyu K.K.)). The pH of the suspension was measured and the liquid volume was adjusted to 4.5 mL while the pH was adjusted to 4.0 with 1N hydrochloric acid. […]
Quantity name: Decomposition efficiency: ratio of each glycoside/aglycon within its isoflavone family (%)

{"Compound": "CC(=O)OC[C@H]1O[C@@H](Oc2cc(O)c3c(=O)c(-c4ccc(O)cc4)coc3c2)[C@H](O)[C@@H](O)[C@@H]1O [acetylgenistin, 6″-O-acetylgenistin]", "Unit annotation": "%", "Assay value": 44.7}
{"Compound": "COc1cc2c(=O)c(-c3ccc(O)cc3)coc2cc1O[C@@H]1O[C@H](CO)[C@@H](O)[C@H](O)[C@H]1O [glycitin]", "Unit annotation": "%", "Assay value": 54.8}
